- measurement.target: Phospholipase A2 (Homo sapiens, UniProt P04054);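 note: confirmatory dose-response counterscreen on phospholipase A2, testing hits that came from an ultra-high-throughput screen for ATG4B inhibitors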
- Sequence (P04054 whole entry): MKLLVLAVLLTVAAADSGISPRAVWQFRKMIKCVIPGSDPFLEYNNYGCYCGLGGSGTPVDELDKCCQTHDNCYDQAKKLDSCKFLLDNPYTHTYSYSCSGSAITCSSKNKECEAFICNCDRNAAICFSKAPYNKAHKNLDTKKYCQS
- Type: functional
Active and inactive are the calls of the source.
Answer each item with its documented IC50.

Query :: Entry under review: Cc1cc(Nc2ccc(Cl)cc2)nc(NCc2ccccc2)n1 . Reported IC50?
Result :: 15.4 µM (active)

Query :: Entry Cc1cc(/C=N/n2c(COc3ccccc3)nc3ccccc3c2=O)c(O)c([N+](=O)[O-])c1 please
Result :: 13.1 µM (active)

Query :: How about Cc1cccc(N2CCN(C(=O)C3CCN(c4ncnc5c4nc4n5CCCCC4)CC3)CC2C)c1 (stereo unspecified) ?
Result :: 11.1 µM (active)

Query :: # repeat for Oc1c(Cl)cc(Cl)cc1/C=N/c1ccc2c(c1)OCCO2
Result :: 11.2 µM (active)

Query :: Ok, now C=CCn1c(SCc2nc3scc(-c4ccccc4)c3c(=O)[nH]2)nnc1-c1ccccc1F
Result :: 12.1 µM (active)

Query :: // next record Cc1ccc2nc(N/N=C/c3ccccc3F)nc(-c3ccccc3)c2c1
Result :: 9.15 µM (active)

====

Assignment: determine reported AC50 for the given compounds.
- measurement.target: Cytochrome P450 1A2 (Homo sapiens, UniProt P05177);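 note: PubChem cytochrome P450 panel assay, CYP1A2 panel member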
- Sequence (P05177 whole entry): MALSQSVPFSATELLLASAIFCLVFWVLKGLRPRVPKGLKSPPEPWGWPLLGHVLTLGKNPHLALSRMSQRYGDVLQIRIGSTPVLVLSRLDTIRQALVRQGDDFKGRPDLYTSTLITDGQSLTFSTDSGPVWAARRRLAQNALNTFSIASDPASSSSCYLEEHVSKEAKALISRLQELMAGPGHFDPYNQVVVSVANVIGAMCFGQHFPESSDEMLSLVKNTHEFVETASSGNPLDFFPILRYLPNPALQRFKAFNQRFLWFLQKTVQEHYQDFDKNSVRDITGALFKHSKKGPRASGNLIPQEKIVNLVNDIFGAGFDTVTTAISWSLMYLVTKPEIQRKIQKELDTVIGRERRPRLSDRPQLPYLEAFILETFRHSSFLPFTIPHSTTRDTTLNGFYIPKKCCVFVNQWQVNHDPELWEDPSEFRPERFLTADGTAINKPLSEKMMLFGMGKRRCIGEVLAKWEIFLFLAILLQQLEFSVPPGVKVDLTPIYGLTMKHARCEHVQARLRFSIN

Query :: Suppose we examine the compound CCOc1cc(NC(=O)c2ccc(OC)cc2)c(OCC)cc1N=C(S)Nc1ccccc1 ; what AC50 value has been reported?
Result :: 7.08 µM (inconclusive)

Query :: And the next one, CO[C@H]1C=C2CCN(C)[C@@H]2[C@@H]2c3cc4c(cc3C(=O)O[C@H]21)OCO4 ?
Result :: 12.6 µM (inconclusive)

Query :: # repeat for OCCCNc1[nH]cnc2nncc1-2
Result :: 6.31 µM (inconclusive)

Query :: Same thing, different compound: CCCCC(C=O)NC(=O)C(CC(C)C)NC(=O)OCc1ccccc1 (stereo unspecified)
Result :: 31.6 µM (inconclusive)

Query :: How about CCCCn1c(SCC(=O)NC(C)(C)C)nnc1-c1ccco1 ?
Result :: 0.316 µM (inconclusive)

Query :: CN1CCN(c2ncc3nc(-c4ccc(F)cc4)c(=O)n(Cc4cccs4)c3n2)CC1 , same question.
Result :: 25.1 µM (inconclusive)

====

- measurement.target: Microphthalmia-associated transcription factor (Homo sapiens)
- Sequence (O75030 whole entry): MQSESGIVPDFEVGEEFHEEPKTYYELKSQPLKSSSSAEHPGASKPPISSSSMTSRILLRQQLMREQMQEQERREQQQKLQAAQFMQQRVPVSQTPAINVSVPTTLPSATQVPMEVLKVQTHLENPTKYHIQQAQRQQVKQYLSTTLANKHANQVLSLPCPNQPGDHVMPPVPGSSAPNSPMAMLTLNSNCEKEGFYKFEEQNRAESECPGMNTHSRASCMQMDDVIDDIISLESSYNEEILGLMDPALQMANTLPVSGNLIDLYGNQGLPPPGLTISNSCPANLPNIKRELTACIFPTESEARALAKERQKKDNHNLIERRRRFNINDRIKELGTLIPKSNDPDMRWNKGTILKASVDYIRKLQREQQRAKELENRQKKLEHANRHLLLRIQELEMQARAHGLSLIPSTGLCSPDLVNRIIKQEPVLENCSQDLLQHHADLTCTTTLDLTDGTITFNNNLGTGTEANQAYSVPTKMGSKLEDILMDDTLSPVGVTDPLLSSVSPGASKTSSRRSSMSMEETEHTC
- method.notes: TRPM1 promoter luciferase signal decrease, dose response, MITF inhibitor project, cell-based, SK-MEL-5, cherry-picked, set 3 (AID 493073);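 note: SK-MEL-5 melanoma cells with luciferase driven by the MITF target TRPM1 promoter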
- Type: functional
Calls of active or inactive are those of the source.
Exercise: for every item that follows, state its recorded AC50.

Query :: Can you look up the measured AC50 of CCC(=O)Nc1cc2nn(-c3ccc(C)cc3)nc2cc1C for me?
Result :: 4.15 µM (active)

Query :: Follow-up entry: COc1cc(SC)ccc1C(=O)Nc1ccc(Br)cn1
Result :: 7.36 µM (active)

Query :: Lookup Cc1cc(C)c(C#N)c(SCc2nnc(-c3ccccc3)o2)n1
Result :: 0.024 µM (active)

Query :: Proceed to O=C(N/N=C\c1cc(Cl)ccc1O)c1ccc(S(=O)(=O)N2CCCCC2)cc1
Result :: 2.81 µM (active)

Query :: How about O=C(NCc1ccccc1)C(=O)Nc1cccc(C(=O)O)c1 ?
Result :: 4.85 µM (active)

Query :: What do you have for CCOC(=O)c1cc([N+](=O)[O-])c([N+](=O)[O-])cc1NC(C)=O ?
Result :: 24.2 µM (active)

Query :: And then CC(=O)Nc1ccc(S(=O)(=O)N2CCn3cccc3C2C)cc1 (configuration not stated) , what is it?
Result :: 28.6 µM (active)
